Cited source: the supplement of paper PMC6607015

tested on: A431; assay: LBPA endosome anti-LBPA integrated intensity (sum per cell), Z-score; higher = more LBPA staining; conditions: compound concentration in added solution (µM; 5 µl added to 20 µl cells): 10; 18 h
Structures can show the parent of a compound that is named as a salt.
property: LBPA endosome anti-LBPA integrated intensity (z-score)

Example cases with answers are listed next.
CN1CCN2c3ccccc3Cc3ccccc3C2C1 (configuration not stated) [Mianserine hydrochloride]; 1.6
CCC(NC(C)C)C(O)c1ccc(O)c(O)c1 (configuration not stated) [Isoetharine mesylate salt]; -0.174
C=C[C@H]1CN2CC[C@H]1C[C@@H]2[C@@H](O)c1ccnc2ccc(OC)cc12 [Quinidine hydrochloride monohydrate]; 0.635
CC(=O)Nc1nnc(S(N)(=O)=O)s1 [Acetazolamide]; -0.546
CN(C)[C@@H]1C(O)=C(C(N)=O)C(=O)[C@@]2(O)C(O)=C3C(=O)c4c(O)ccc(Cl)c4[C@@H](O)[C@H]3C[C@@H]12 [Demeclocycline hydrochloride]; -0.567
CC1=C(C(=O)O)N2C(=O)[C@@H](NC(=O)[C@H](N)c3ccccc3)[C@H]2SC1 [Cephalexin monohydrate]; -0.543

Next:
**Q:** // lookup LBPA endosome anti-LBPA integrated intensity (z-score) for CCOC(=O)[C@H](CCc1ccccc1)N[C@@H](C)C(=O)N1[C@H](C(=O)O)C[C@@H]2CCC[C@@H]21
**A:** -0.401
